PROTOCOL NOTES: Primary qHTS for inhibitors of nuclear receptor binding SET domain protein 2 (NSD2) in an isogenic RCH-ACV NSD2 p.E1099K mutant (9B) (AID 1645876); further: nearly all actives have a fitted effect of over 70% in size
PARTICULARS: RCH-ACV (leukaemia line) NSD2 E1099K (9B) viability, CellTiter-Glo, 72 h; series mostly up to 44.9 µM
Inconclusive results are not listed. Active and inactive are the calls of the source. The call rests on the fitted dose curve; in most records, active means well fitted inhibition curve with a large enough effect; inconclusive means small, poorly fitted or top-dose-only effect; inactive means flat fitted curve, though single readings scatter.
Select the correct class. Options are 1 for active, 0 for inactive and nothing else.

Answered examples (3):
{"COMPOUND": "CC(C)C1CCC(C(=O)N[C@H](Cc2ccccc2)C(=O)O)CC1 (stereo not given in full)", "GROUP LABEL": 0}
{"COMPOUND": "CCn1cc(C(=O)O)c(=O)c2cc(F)c(N3CCNCC3)cc21", "GROUP LABEL": 0}
{"COMPOUND": "NS(=O)(=O)c1cc2c(cc1Cl)NC(C(Cl)Cl)NS2(=O)=O (stereo not given)", "GROUP LABEL": 0}

Given CC(C)Cn1cnc2c(N)nc3ccccc3c21 , state the outcome it received in this test.
0

Given CNC1CCCN(c2c(F)cc3c(=O)c(C(=O)O)cn(C4CC4)c3c2OC)C1 (stereo not given) , state the outcome it received in this test.
0

Given Cc1cccc(N(C)C(=S)Oc2ccc3ccccc3c2)c1 , state the outcome it received in this test.
0

Given COc1cc2nc(N3CCCN(C)CC3)nc(NC3CCN(Cc4ccccc4)CC3)c2cc1OC , state the outcome it received in this test.
1

Given O=C(O)C1CCCN(CCC=C(c2ccccc2)c2ccccc2)C1 (stereo not given) , state the outcome it received in this test.
0
